# Test system: NCI-H460
# test details: NCI tumour cell line growth inhibition, 48 h
Calls of active or inactive are those of the source. Rule as the data show it: active = GI50 up to about 1.1 µM and inactive = higher.
quantity name: GI50

Sample answers from the record:
{"columns": ["compound", "GI50"],
 "data": [
  ["COc1c(O)cc(O)c2c(=O)cc(-c3ccccc3)oc12", "26.2 µM (inactive)"],
  ["O=C1CNc2cc(N3CCOCC3)ccc2N1", "> 100 µM (inactive)"]
]}

Task: What value of measured GI50 is listed for O=C(O)c1c(CC(Cc2ccccc2)C(=O)O)ccc2c1CCC2 (stereo unspecified) ?
Output: > 100 µM (inactive)

Task: For O=C1c2ccccc2C2(O)Oc3cccc(O)c3C12O (stereo unspecified) then?
Output: > 100 µM (inactive)

----------
Listed below: GI50 values for each entry.
# System: U-251
# test details: NCI tumour cell line growth inhibition, 48 h
Active and inactive are the calls of the source. Cut-off read from the data, not from the text of the source: active = GI50 up to about 1.1 µM and inactive = higher.

{"columns": ["compound", "GI50"],
 "data": [
  ["COC(=O)C1=C(C)NC(C)=C([N+](=O)[O-])C1c1cccc(N=O)c1 (stereo not given)", "18 µM (inactive)"],
  ["OCC(O)C(O)C(O)C(/C=N\\Nc1ncnc2ccc(Br)cc12)=N/Nc1ncnc2ccc(Br)cc12 (stereo not given)", "3.34 µM (inactive)"],
  ["O=C1Oc2ccccc2C(=O)/C1=C/NC(=S)NCCc1ccccc1", "53.6 µM (inactive)"]
]}

Pending compound:
Task: State its GI50 on U-251: `Cn1c(N)c(/C=C/C(=O)Oc2ccccc2)c(=O)n(C)c1=O`
Output: 52.8 µM (inactive)

----------
# Tested on: PC-3
# test details: NCI tumour cell line growth inhibition, 48 h
Calls of active or inactive are those of the source. No stated cut-off is given here; in the data, active = GI50 up to about 1.1 µM and inactive = higher.
Respond with a class label; see 1 (yes) = active, 0 (no) = inactive

{"columns": ["compound", "class label"],
 "data": [
  ["CCCCCCn1c(SC)nc(COC(=O)NC)c1COC(=O)NC", "0 (no)"],
  ["COc1c(O)cc(O)c2c(=O)cc(-c3ccccc3)oc12", "0 (no)"],
  ["CCCCCCC(O)C(=O)OC1C2C(CC1(C)C)C(O)C13OC1C(O)C1(CO1)[C@@]23C (stereo not given in full)", "0 (no)"],
  ["CC1=C(N2CC2)C(=O)c2ccccc2C1=O", "1 (yes)"],
  ["CCCCc1cc2c(C)cc(=O)oc2c(O)c1O", "0 (no)"]
]}

Task: What outcome does the record of this test show for `O=C(O)c1ccc(C2=Nc3cccc4cccc(c34)N2)cc1` ?
Output: 0 (no)

Task: Follow-up item: `Cc1ccc(S(=O)(=O)NC(=O)Nc2ccc(C(=O)O)cc2)cc1`
Output: 0 (no)

Task: Ok, now CC(C)C(N)C(=O)NC(CCC(=O)NCCCCC(N)C(=O)NCCCNc1ccc([N+](=O)[O-])c2[nH]c3ccccc3c(=O)c12)C(N)=O (stereo not given)
Output: 0 (no)

Task: Please do the same for `CCN(CC)CCCNc1nc(=O)[nH]c(C)c1C(=O)Nc1cccc2cc3ccccc3cc12` as well.
Output: 0 (no)

Task: `N#Cc1nc(CCCN2C(=O)c3ccccc3C2=O)oc1N` ?
Output: 0 (no)

----------
# System: SW-620
# test details: NCI tumour cell line growth inhibition, 48 h
The source made the active and inactive calls. Rule as the data show it: active = GI50 up to about 1.1 µM and inactive = higher.
quantity name: GI50

Examples from the recorded data:
{"columns": ["compound", "quantity name", "obs value"],
 "data": [
  ["Nc1nc(Cl)cc(NCC2(CO)CC(O)C2)n1 (stereo not given)", "GI50", "> 100 µM (inactive)"],
  ["C=C1c2ccccc2N(S(=O)(=O)c2ccc(C)cc2)C12CCCCC2", "GI50", "59.3 µM (inactive)"],
  ["COc1ccc(C(=O)C(c2ccc(OC)cc2)C2C(=O)Oc3ccccc32)cc1 (stereo not given)", "GI50", "> 10 µM (inactive)"]
]}

Task: Given the compound `COCN1C(=O)[C@@H]2CCCN2C(=O)c2cc(OC)c(Cc3ccccc3)cc21` , what is its reported GI50?
Output: > 100 µM (inactive)

Task: Repeat with `N#C/C(=N\c1ccccc1N(C(=O)c1ccccc1)C(=O)c1ccccc1)c1ccccc1`
Output: 6.52 µM (inactive)
